# PROTOCOL NOTES: Phase I clinical trial: plasma pharmacokinetics
# Assay type: in vivo, human
# CONDITIONS USED: human, plasma, oral; 30 mg QW
PROPERTY MEASURED: AUC (µM·h)
All answers are understood in µM·h, so give the number only.

**Query** Recorded AUC of CC(C)n1nc(-c2ccc3oc(N)nc3c2)c2c(N)ncnc21 , please.
**Result** 5

###

# TARGET OR TEST SYSTEM: mTOR (Homo sapiens, UniProt P42345)
# Construct: purchased Invitrogen
# PROTOCOL NOTES: mTOR kinase inhibition assay
# Assay type: biochemical
# CONDITIONS USED: Table 2; read-out: mTORC IC50
pIC50: −log10 of the molar value.
PROPERTY MEASURED: pIC50

These solved cases illustrate the format of a correct answer.
CHEMICAL SMILES	PROPERTY MEASURED	VAL
CC(C)n1nc(-c2cc3ccc(C(N)=O)cc3[nH]2)c2c(N)ncnc21	pIC50	6.30 to 7.00
CC(C)n1nc(-c2cc3ccc(O)cc3[nH]2)c2c(N)ncnc21	pIC50	7.30 to 7.60
Nc1ncnc2c1c(-c1cc3cc(O)ccc3[nH]1)nn2C1CCCCC1	pIC50	8.00 to 8.30
Nc1ncnc2c1c(-c1cc3cc(O)cc(Cl)c3[nH]1)nn2C1CCOCC1	pIC50	> 8.30
Nc1ncnc2c1c(-c1cc3cccc(O)c3[nH]1)nn2C1CCCC1	pIC50	8.00 to 8.30

Now turn to the next molecule.
**Query** Recorded pIC50 of CNC(=O)CCn1nc(-c2cc3cc(O)ccc3[nH]2)c2c(N)ncnc21 , please.
**Result** < 6.30

###

# PROTOCOL NOTES: Phase I clinical trial: plasma pharmacokinetics
# Type: in vivo, human
# CONDITIONS USED: human, plasma, oral; 13 mg Q5D
# Procedure: Adult patients with histologically confirmed advanced solid tumors were enrolled in a 3+3 dose escalation Phase I study evaluating 3 intermittent schedules of administration for compound A: QW (once weekly), QD×3d QW (3 days on 4 days off), and QD×5d QW (5 days on 2 days off), in comparison with daily dosing (QD). Safety, maximum tolerated dose (MTD), pharmacokinetics (PK) and preliminary antitumor activity were evaluated.
PROPERTY MEASURED: AUC (µM·h)
All answers are understood in µM·h, so give the number only.

**Query** Recorded AUC of CC(C)n1nc(-c2ccc3oc(N)nc3c2)c2c(N)ncnc21 , please.
**Result** 13

###

Reported IC50 values follow for various compounds
# TARGET OR TEST SYSTEM: PI3K α (Homo sapiens, UniProt P42336)
# Sequence (P42336 whole entry, species assumed): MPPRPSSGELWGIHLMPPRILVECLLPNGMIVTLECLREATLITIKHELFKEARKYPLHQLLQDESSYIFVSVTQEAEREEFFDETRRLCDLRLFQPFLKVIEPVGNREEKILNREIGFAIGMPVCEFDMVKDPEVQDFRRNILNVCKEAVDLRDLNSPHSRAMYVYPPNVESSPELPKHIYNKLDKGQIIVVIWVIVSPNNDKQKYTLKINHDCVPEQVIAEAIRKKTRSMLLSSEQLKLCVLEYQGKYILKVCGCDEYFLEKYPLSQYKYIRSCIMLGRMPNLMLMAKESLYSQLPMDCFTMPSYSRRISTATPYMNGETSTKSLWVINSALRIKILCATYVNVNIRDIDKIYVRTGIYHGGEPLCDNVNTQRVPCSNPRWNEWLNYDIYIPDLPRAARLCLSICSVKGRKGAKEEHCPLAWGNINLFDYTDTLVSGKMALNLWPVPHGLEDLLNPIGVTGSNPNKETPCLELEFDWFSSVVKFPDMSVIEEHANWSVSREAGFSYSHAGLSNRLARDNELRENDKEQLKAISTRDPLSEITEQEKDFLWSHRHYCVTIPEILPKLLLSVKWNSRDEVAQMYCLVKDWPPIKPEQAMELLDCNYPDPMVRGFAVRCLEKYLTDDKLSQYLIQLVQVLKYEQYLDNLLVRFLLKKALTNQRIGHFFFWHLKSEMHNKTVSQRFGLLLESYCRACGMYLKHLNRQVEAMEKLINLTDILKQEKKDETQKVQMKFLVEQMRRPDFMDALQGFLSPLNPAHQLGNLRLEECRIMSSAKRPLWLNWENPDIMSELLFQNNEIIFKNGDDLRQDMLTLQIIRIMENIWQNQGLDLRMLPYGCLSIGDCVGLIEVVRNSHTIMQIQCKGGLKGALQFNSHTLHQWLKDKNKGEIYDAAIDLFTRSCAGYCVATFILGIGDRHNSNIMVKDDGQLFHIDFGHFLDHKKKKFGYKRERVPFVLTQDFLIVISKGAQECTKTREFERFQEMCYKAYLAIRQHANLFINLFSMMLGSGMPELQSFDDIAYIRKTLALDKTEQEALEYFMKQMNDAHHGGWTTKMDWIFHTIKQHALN
# Sequence (P27986 whole entry partner, species assumed): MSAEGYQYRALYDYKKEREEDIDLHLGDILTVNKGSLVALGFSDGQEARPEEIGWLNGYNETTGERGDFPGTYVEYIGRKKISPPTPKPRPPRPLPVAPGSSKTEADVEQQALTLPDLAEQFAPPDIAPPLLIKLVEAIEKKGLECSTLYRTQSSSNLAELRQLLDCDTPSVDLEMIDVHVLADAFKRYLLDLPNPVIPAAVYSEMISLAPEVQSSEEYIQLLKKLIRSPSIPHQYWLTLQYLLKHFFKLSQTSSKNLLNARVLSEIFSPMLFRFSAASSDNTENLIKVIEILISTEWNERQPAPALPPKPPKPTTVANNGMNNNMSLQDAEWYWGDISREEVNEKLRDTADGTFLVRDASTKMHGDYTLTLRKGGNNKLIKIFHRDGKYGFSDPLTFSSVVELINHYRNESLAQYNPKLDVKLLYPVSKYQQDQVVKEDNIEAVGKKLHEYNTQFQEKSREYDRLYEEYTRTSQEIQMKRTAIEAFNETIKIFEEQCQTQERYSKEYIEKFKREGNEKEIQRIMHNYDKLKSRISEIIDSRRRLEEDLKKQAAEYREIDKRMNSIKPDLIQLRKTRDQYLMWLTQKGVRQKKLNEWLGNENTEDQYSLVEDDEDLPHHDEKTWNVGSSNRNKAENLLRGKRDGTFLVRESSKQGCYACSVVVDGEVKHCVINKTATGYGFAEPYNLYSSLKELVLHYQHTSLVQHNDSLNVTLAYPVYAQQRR
# PROTOCOL NOTES: PI3K α kinase assay
# Format: biochemical
# CONDITIONS USED: Table 2

These solved cases illustrate the format of a correct answer.
COMPOUND	IC50
CN1CCN(C2CC(n3nc(-c4cc5cc(O)ccc5[nH]4)c4c(N)ncnc43)C2)CC1 (stereo not drawn)	> 500 nM
COc1cccc2cc(-c3nn(C4CCOCC4)c4ncnc(N)c34)[nH]c12	100 to 500 nM
Nc1ncnc2c1c(-c1cc3cc(O)cc(Cl)c3[nH]1)nn2C1CCOCC1	100 to 500 nM
COc1ccc2cc(-c3nn(C(C)C)c4ncnc(N)c34)[nH]c2c1	> 500 nM
Nc1ncnc2c1c(-c1cc3cc(O)ccc3[nH]1)nn2Cc1cccnc1	> 500 nM
CC(C)n1nc(-c2cc3ccccc3[nH]2)c2c(N)ncnc21	> 500 nM
Cc1nccn1CCn1nc(-c2cc3cc(O)ccc3[nH]2)c2c(N)ncnc21	> 500 nM
CC(C)n1nc(-c2cc3c(Cl)ccc(O)c3[nH]2)c2c(N)ncnc21	> 500 nM

Now turn to the next compound.
**Query** Recorded IC50 of CC(C)n1nc(-c2cc3cc(C#N)ccc3[nH]2)c2c(N)ncnc21 , please.
**Result** > 500 nM
